Assignment: determine reported Relative % to native ligand for the given binders.
target_desc: T1, human glucose-dependent insulinotropic polypeptide receptor (GIPR), expressed on CHO-K1 cells (human, UniProt P48546 22-466)
T1 sequence (looked up): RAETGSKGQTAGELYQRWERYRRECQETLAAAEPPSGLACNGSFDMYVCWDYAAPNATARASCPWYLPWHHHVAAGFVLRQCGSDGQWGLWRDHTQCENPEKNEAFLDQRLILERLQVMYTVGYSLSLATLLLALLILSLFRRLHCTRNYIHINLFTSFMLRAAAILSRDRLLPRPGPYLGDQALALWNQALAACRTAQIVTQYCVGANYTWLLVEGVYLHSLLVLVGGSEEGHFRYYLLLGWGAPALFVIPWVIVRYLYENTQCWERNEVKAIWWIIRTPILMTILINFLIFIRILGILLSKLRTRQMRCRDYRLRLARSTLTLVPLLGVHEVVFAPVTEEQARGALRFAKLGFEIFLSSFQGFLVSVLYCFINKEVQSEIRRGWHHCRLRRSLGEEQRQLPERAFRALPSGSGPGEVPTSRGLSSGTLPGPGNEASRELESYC
assay_info: cell-based or functional assay
Numbered stars: 1 amine (or outer) side, 2 acyl side, 3 side chain; on linkers, the order of the positions; unused ones are H or OH. Square brackets hold non-standard residues; d marks the D form. Side chains are listed from the residue outwards. Ends that are not written are not given here. * marks the point of attachment. C18 = C18 fatty acid (C16-C22 fatty acids conjugated via γGlu/8-amino-3,6-dioxaoctanoic acid spacers); methoxinine = methoxinine (m*), COCC[C@H](N[*:1])C(=O)[*:2]; Biotin = O=C1N[C@H]2[C@H](CS[C@H]2CCCCC(=O)*)N1; γGlu = O=C(O)[C@H](CCC(=O)[*:2])N[*:1]; AEEA = NCCOCCOCC(=O)O; Aib = CC(C)(N)C(=O)O
Provide only the numeric value, understood in %.

Ask: Please report Relative % to native ligand for the following binder: Y[Aib]QGTFTSDYSK([AEEA-AEEA-γGlu-C18])LLDQQAQRDFVQWLLEGGPSSGAPPPS-NH2 [SEQ ID NO. 95]
Reply: 316

Ask: Give the measured Relative % to native ligand for Y[Aib]QGTFTSDYSK([AEEA-AEEA-γGlu-C18])LLDYMMQRDFVQWLLEGGPSSGAPPPSK(Biotin)-NH2 [SEQ ID NO. 90]
Reply: 154

Ask: Output measured Relative % to native ligand for this item: Y[Aib]QGTFTSDYSK([AEEA-AEEA-γGlu-C18])LLDY[methoxinine][methoxinine]QRDFVQWLLEGGPSSGAPPPS-NH2 [SEQ ID NO. 96]
Reply: 102

Ask: Item Y[Aib]QGTFTSDYSK([AEEA-AEEA-γGlu-C18])LLDYMMQRDFVKWLLEGGPSSGAPPPS-NH2 (not fully specified (residue 24); printed as YAibQGT FTSDY SK*LLD YMMQR DFVB*W LLEGG PSSGA PPPS) [SEQ ID NO. 89] : provide Relative % to native ligand
Reply: 154

Ask: Consider the binder Y[Aib]QGTFTSDYSK([AEEA-AEEA-γGlu-C18])LLDYMMQ[Aib]DFVQYLLEGGPSSGAPPPS-NH2 [SEQ ID NO. 85] . State its measured Relative % to native ligand.
Reply: 143

Ask: Look up and state reported Relative % to native ligand for Y[Aib]QGTFTSDYSK([AEEA-AEEA-γGlu-C18])LLDYMMQKDFVQWLLEGGPSSGAPPPS-NH2 (not fully specified (residue 20); printed as YAibQGT FTSDY SK*LLD YMMQB* DFVQW LLEGG PSSGA PPPS) [SEQ ID NO. 88]
Reply: 71
